METHOD_SUMMARY: Sephadex-induced lung edema
Format: in vivo, SD rats
SETUP_CONDITIONS: Sprague-Dawley, rat, thymus, other: intratracheal; i.t., 24 hrs and 2 hrs prior to Sephadex; read-out: ED50 Thymus involution
PROPERTY_MEASURED: ED50 at 24 h (mg/kg)
Return type: number; implicit unit mg/kg.

1) CCC(=O)O[C@]1(C(=O)SCF)[C@H](C)C[C@H]2[C@@H]3C[C@H](F)C4=CC(=O)C=C[C@]4(C)[C@@]3(F)[C@@H](O)C[C@@]21C [Fluticasone propionate]: 0.36
2) CCCC1O[C@@H]2C[C@H]3[C@@H]4CCC5=CC(=O)C=C[C@]5(C)[C@H]4[C@@H](O)C[C@]3(C)[C@]2(C(=O)CO)O1 (stereo partly shown) [Budesonide]: 0.68
3) CC(C)C(=O)OCC(=O)[C@@]12O[C@H](C3CCCCC3)O[C@@H]1C[C@H]1[C@@H]3CCC4=CC(=O)C=C[C@]4(C)[C@H]3[C@@H](O)C[C@@]12C [Ciclesonide]: 3.13

Here is the next item to consider.
Request: Identify the reported ED50 at 24 h for the following entry. C[C@@H]1CC2C3C[C@H](F)C4=CC(=O)C=C[C@]4(C)[C@@]3(F)[C@@H](O)C[C@]2(C)[C@@]1(OC(=O)c1ccco1)C(=O)SCC#CCOC(=O)CC(C)(C)F (stereo partly shown) [Formula I]
Result: 8.7

# credit: patent US9458187B2
